Assay: NCI Yeast Anticancer Drug Screen. Data for the mlh1 rad18 strain (AID 175)
Conditions: S. cerevisiae mlh1 rad18 strain growth inhibition; at 50.0 µM; active compounds read high
Procedure: Growth inhibition of yeast strains with defined genetic alterations is measured as a screen for potential anti-cancer activity. Selected strains with alterations in DNA damage repair or cell cycle control were exposed to compounds and growth inhibition was measured relative to vehicle treated controls. The strain used in this assay is mlh1 rad18
Compounds without any hit were thinned out: in the full panel of roughly 79,000, 15% have a hit.
property measured: growth inhibition (%)

CS(C)(=O)=Nc1ccc(F)cc1; 3.25
O=C(NCCc1ccccc1)c1ccc2ccccc2n1; 84.5
C[C@H]1C(=O)OCN1S(=O)(=O)C(C)(C)C; -2.95
C1=NC(c2ccccc2)=CN(C2CCCCCCC2)C1(c1ccccc1)C1CCCCCCC1 (stereo not given); 50.4
CC(C)N(CCSC(=O)N1c2ccccc2Sc2cccnc21)C(C)C; 1.6
Cc1cccc2c1C(=O)OC2(c1cccc2ccccc12)c1cccc2ccccc12; 1.6
C[C@]12CC[C@@H]3c4ccc(O)cc4CC[C@H]3[C@@H]1CC[C@@H]2OC(=O)CCc1ccccc1; 31.1
C/C(CC(=O)N1CCCCC1)=N\NC(N)=S; -18.2
COc1nc(Cl)nc(C(N)=O)c1N; -4.85
OCc1ccccc1C1CSCSC1; -12.2
Cn1c(=O)sc2ccccc21; 25.6
CC(C)N(CCN1CCCCC1)c1ccccn1; 14.9
Oc1cccc2ccc[n+](CCc3ccccc3)c12; 31.6
COc1cc(OC)c(NC2=CC(c3ccc(Cl)cc3)OC2=O)cc1Cl (stereo not given); 17.8
O=C(CCCc1ccccc1)OCC(=O)c1ccc(-c2ccccc2)cc1; 14.6
CC(C)(S(=O)(=O)Oc1ccccc1)S(=O)(=O)Oc1ccccc1; 16.6
O=[N+]([O-])c1ccc2c(c1)nc(-c1ccccn1)n2CCc1ccncc1; 99.2
O=C(NC1CCCCC1)C1C2CC3OC(=O)C1C3C2 (stereo not given); -10.1
CCCCCCCCCCCCCCCCCC(=O)N/N=C/c1ccccc1OC; 28.1
CCN(CC)CC(O)c1ccc2ccccc2c1 (stereo not given); 40.9
COc1ccc(N=Nc2ccccc2)cc1; -4.95
COc1ccc(C(O)c2ccc(OC)cc2)cc1; -7.6
c1ccc(CN2COc3ccc4c5c(ccc4c3C2)OCN(Cc2ccccc2)C5)cc1; -17.7
COC(=O)C1=C(\O)C[C@@]2(C)CC[C@@H](C(=O)OC)C2C/C=C\1C(=O)OC (stereo not given in full); 34.8
COc1ccc(CN(C)C)c(C(O)c2ccccc2)c1 (stereo not given); 13.2

---

The following molecules are listed with their measured growth inhibition values.
Assay: NCI Yeast Anticancer Drug Screen. Data for the rad50 strain (AID 155);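 note: 0% = growth of vehicle-only cultures of the same strain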
Details: S. cerevisiae rad50 strain growth inhibition; at 50.0 µM; active compounds read high
This is part of a sample that, as a whole, favours compounds with a hit. Of some 79,000 tested, about 15% had one in any assay.
property measured: growth inhibition (%)

c1ccc(B2OC(c3ccccc3)=C(c3ccccc3)O2)cc1; 1.45
O=C1CCCCC1CN1CCOCC1 (stereo unspecified); -37.5
NC1=C(O)C(=O)C(c2ccc(C3OC(N)=C(O)C3=O)cc2)O1 (stereo unspecified); -8.15
Cc1cccc(N=Nc2c(-c3ccccc3)nn(C(N)=S)c2C)c1C; -19.8
COc1cccc(/C=C(\C#N)C(=O)c2ccccc2)c1; 4.4
CC12CCC(/C(=N/O)C1=O)C2(C)C (stereo unspecified); 2.15

---

The following compounds are listed with their measured growth inhibition values.
Assay: NCI Yeast Anticancer Drug Screen. Data for the sgs1 mgt1 strain (AID 161);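 note: 0% = growth of cultures given vehicle only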
Conditions: S. cerevisiae sgs1 mgt1 strain, at 50.0 µM, active compounds read high
The panel holds about 79,000 compounds, 15% with a hit somewhere; the sample as a whole holds those more often.
property measured: growth inhibition (%)

O=S(=O)(Nc1cccc(Br)c1)N1CCCCC1; 23.6
Cc1sc2ncnc(Cl)c2c1C; -1.4
COc1ccc(C=Nc2cc([N+](=O)[O-])ccc2O)cc1; 3.75
Cc1cc([N+](=O)[O-])ccc1N=NC(=O)NNc1ccc([N+](=O)[O-])cc1C; 8.35
CCOC(=O)C(Cl)(NC(=O)c1ccc(F)cc1)C(F)(F)F (configuration not stated); -18.5
COc1ccc2c(c1)CN(Cc1ccccc1)CO2; 6
Oc1ccc(Br)cc1C1Nc2ccccc2S1 (configuration not stated); 0.4
O=C1CCCCc2cccc(O)c21; -1.95
COc1ccc(NC(=O)Nc2ccc(-c3ccc(NC(=O)Nc4ccc(OC)cc4)c(C)c3)cc2C)cc1; -8.5
S=C1c2cc(Cl)ccc2NC(=NC2CCCC2)C2CSCN12 (configuration not stated); 51.5
CCN=c1c([N+](=O)[O-])c(NC(=O)c2ccccc2)sn1CC; -5.5
CCCCc1c(OCC)cc2n(CC)c3ccccc3n2c1=O; 0.8

---

The following compounds are listed with their measured growth inhibition values.
Test: NCI Yeast Anticancer Drug Screen. Data for the mlh1 rad18 strain (AID 175)
Conditions: S. cerevisiae mlh1 rad18 strain growth inhibition; at 50.0 µM; active compounds read high
The panel holds about 79,000 compounds, 15% with a hit somewhere; the sample as a whole holds those more often.
property measured: growth inhibition (%)

CSc1cccc(N)c1; -5.65
O=C(Cl)c1ccc(Cc2ccc([N+](=O)[O-])cc2)cc1; 12.4
CC1(C)COC(C2(C)C(=O)C=C(c3ccccc3)c3ccccc32)=N1 (stereo unspecified); 11.8
C/C(=N\NC(C)(C)C)c1sc(-c2nc(C)c(/C(C)=N/NC(C)(C)C)s2)nc1C; 21.8
CCCOc1ccc(C2=C(c3ccccc3)C(=O)C(c3ccccc3)=C2c2ccccc2)cc1; 20.6
Cc1cccc(O)c1C(=O)O; -0.25

---

Experiment: NCI Yeast Anticancer Drug Screen. Data for the rad50 strain (AID 155);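 note: 0% = growth of vehicle-only cultures of the same strain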
Settings: S. cerevisiae rad50 strain growth inhibition; at 50.0 µM; active compounds read high
Compounds without any hit were thinned out: in the full panel of roughly 79,000, 15% have a hit. Calls of active or inactive are those of the source. No stated cut-off is given here; in the data, active means growth inhibition above about 70%; inactive means the rest.
The following molecules are listed with their measured growth inhibition values.
property measured: growth inhibition

COc1ccc(Cc2ccccc2C(=O)c2ccc(OC)cc2)cc1; -14.7% (inactive)
CCCCCCCCNC(=O)c1ccccc1C(=O)O; 1.6% (inactive)
CCCCC(CCC)OC(=O)Nc1cccc2ccccc12 (stereo unspecified); 35.1% (inactive)
CCCCCCCCCCCCS(=O)(=O)CC(=O)O; -8.65% (inactive)
COC(=O)C1(C)CCCC2(C)C3CCC(C(C)C)CC3CCC12 (stereo unspecified); 24.9% (inactive)
CCc1ccc(NC(=O)Nc2ccc(Cl)cc2)cc1; -3.2% (inactive)
C/C=C/C=C/C(=O)CCC1(C)OC(=O)C(C)=C1O (stereo unspecified); -0.9% (inactive)
O=C(O)c1ccc(NC(NC(=O)C(C(F)(F)F)C(F)(F)F)(C(F)(F)F)C(F)(F)F)cc1; 20.2% (inactive)
O=C(O)C(C(=O)O)C(c1ccccc1)c1ccccc1Br (stereo unspecified); 5.15% (inactive)
CC(C)NCCO; 23.1% (inactive)
Nc1ccc2[nH]cc(CCC(=O)O)c2c1; -11.8% (inactive)
CCCCCCCc1c(C)c2ccc(OC)cc2[nH]c1=O; -9.8% (inactive)
CN(C)CCC(c1ccccc1)C(CO)c1ccccc1 (stereo unspecified); -24.6% (inactive)
O=C(/C(N=Nc1ccccc1)=C(\O)c1ccccc1)c1ccccc1; -8.15% (inactive)
O=CSC(=Nc1ccc(Cl)cc1)NC(=O)COc1ccc(Cl)cc1; 5.05% (inactive)
CC(C)=CCC(C)c1ccncc1 (stereo unspecified); 1.9% (inactive)
CCN(CC)C1=CC(=O)C(N(CC)CC)=CC1=O; 1.25% (inactive)
CC=C(c1ccccc1)c1ccccc1; -34% (inactive)
N=C1CCCC1C(=S)SCCC(N)=O (stereo unspecified); -11.8% (inactive)
O=c1ccn(-c2ccccn2)c(=O)n1-c1ccccn1; 18.9% (inactive)
CN(C)CC(CN(C)C)C(=O)/C=C/c1ccc(O)cc1; 1.4% (inactive)
O=C(O)C(Cl)(c1ccccc1)c1ccccc1; -6.5% (inactive)
COC(=O)[C@@]1(C(C)CC(=O)O)CCCCC1=O (stereo partly specified); -11.6% (inactive)
CC(=O)Nc1cc2c(cc1Br)-c1ccccc1C2=O; -15% (inactive)
CC(Br)CCc1ccccc1Br (stereo unspecified); 3.95% (inactive)
C=CC1CC[N-]CC1.[Cl][Cu][Cl]; 6.4% (inactive)
C1CC2CC1C13OC1C1(CC1)C1OC213 (stereo unspecified); -4.5% (inactive)
O=C(NCCc1ccccc1)c1ccc2ccccc2n1; 65.3% (inactive)
CC12CCCC=C1C(C)(C)C(O)CC2 (stereo unspecified); 3.45% (inactive)
O=C(NNc1ccccc1)NNc1ccccc1 (tested in a mixture with another compound); 11.1% (inactive)
CC(=O)OCCc1ccc2c(c1)OCO2; -0.1% (inactive)
COc1cc(NCCCCC2CCCCN2)c2ncccc2c1 (stereo unspecified); 15.7% (inactive)
O=c1ccsc(=S)[nH]1; -1% (inactive)
NNC(=O)CCCO; -33.9% (inactive)
COC1(OC)C2(Cl)C(Cl)=C(Cl)C1(Cl)C1C=CC=CC12 (stereo unspecified); -19.9% (inactive)
Cc1cc2nnc(-c3cccc([N+](=O)[O-])c3)n2c2nnnn12; 25% (inactive)
CCOC(=O)Cc1nc2ccc3c(c2[nH]c1=O)C(=O)c1ccccc1C3=O; 34.7% (inactive)
CCOC(=O)CN(c1c(C)cc(C)c(N(CC(=O)OCC)S(=O)(=O)c2ccccc2)c1C)S(=O)(=O)c1ccccc1; 40.5% (inactive)
CC1CC(=O)C(CCC#N)=C(O)C1 (stereo unspecified); 4.85% (inactive)
CN1C/C(=C\C=C\c2ccccc2)C(=O)/C(=C/C=C/c2ccccc2)C1; 66.7% (inactive)
CCCC(=O)N[C@H]1C2C3CC4C5CC(C42)C1(C)C53 (stereo partly specified); -5.3% (inactive)
COc1ccc(/C=C(\C2=NC(=O)CS2)c2nc3ccccc3[nH]2)cc1; -0.35% (inactive)
OCCN(CCO)c1cc(/C=C/c2cccc3ccccc23)nc2ccccc12; 56.9% (inactive)
O=C1CCC(N2C(=O)C3CCCCC3C2=O)C(=O)N1 (stereo unspecified); -0.2% (inactive)
CCCCCCCC/C=C/CCCCCC1CCCC(C)N1 (stereo unspecified); 26.9% (inactive)
COc1cc(C(=O)N(C)N(C)C)cc(OC)c1OC; 6.6% (inactive)
CC1(C)C2C=CC1(C)C1(CC2)OCCO1 (stereo unspecified); 10.5% (inactive)
CN(C(=N)N)c1ccc(C(=O)Oc2ccc([N+](=O)[O-])cc2)cc1; 14.8% (inactive)
Cc1ccc([N+](=O)[O-])c2c(NCCNC(=O)Cn3ccnc3[N+](=O)[O-])ccnc12; 15.8% (inactive)
CC1=CC(=O)[C@@H]2C[C@H]1C2(C)C; 15.3% (inactive)
CCCCCCCCCCCCCCCCOCC(COS(C)(=O)=O)OS(C)(=O)=O (stereo unspecified); 20% (inactive)

Every entry's value here was drawn from PubChem BioAssay (NCI).
